Kindly supply the reported CC50 values for the records listed here.
- Assay explanation: in vitro
- Experimental parameters: human
Answers are plain numbers, in µM.

COc1ccc(-c2oc3c(OC)c(OC)c(OC)c(O)c3c(=O)c2OC)cc1O [PMF]
10

Now look at this one.
Form field: reported CC50 of COc1ccc(-c2oc3cc(OC)c(OC)c(O)c3c(=O)c2OC)cc1OC [PMF-OH]
10
